B1: TMEM106C (parent)
chain: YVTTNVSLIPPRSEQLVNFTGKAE

Variants of: B1
assay.method.text: protein stability index of a GFP-peptide fusion (GPS, HEK-293T) (PSI 1-6); higher = more stable;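 further: lentivirally expressed fusions sorted by FACS into six bins by GFP to DsRed ratio, PSI derived from sequencing read proportions per bin multiplied by bin number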
condition.notes: c terminus: a fixed tail appended
Lab note: anything with protein stability index at or over 2 counts as class 1; the rest go in class 0.

variant.identifier | classification
A23M | class 0
L8A | class 1
V6I | class 0
L16P | class 1
R12W | class 1
P11N | class 1
N18W | class 1
Q15M | class 0
N5K | class 1
R12C | class 0
Y1W | class 1
S7I | class 1
Y1P | class 1
K22E | class 0
T20P | class 1
T3W | class 1
K22C | class 1
I9Q | class 0
E24D | class 1
L8Q | class 0
F19T | class 1
S13K | class 0
V6S | class 0
S7F | class 0
S7C | class 1
G21R | class 1
Y1N | class 1
P10H | class 0
P10K | class 1
A23K | class 1
T4W | class 1
P11W | class 1
R12T | class 1
S13L | class 1
L8H | class 1
P10C | class 1
N5Y | class 1
T20Q | class 0
Q15H | class 1
P10Q | class 1
P11A | class 0
G21N | class 1
P11E | class 0
N5A | class 0
L8R | class 0
V17P | class 1
Y1K | class 1
F19C | class 1
Q15E | class 1
S13V | class 1
A23T | class 0
V2I | class 1
L16E | class 1
I9W | class 0
T3G | class 1
V6D | class 1
T4N | class 1
R12H | class 0
T4E | class 0
V17D | class 1
S7W | class 0
N5F | class 1
S13P | class 0
Y1G | class 1
E14S | class 0
V6L | class 1
T20M | class 1
P10R | class 1
V2P | class 1
T20S | class 0
L16S | class 0
P11S | class 1
R12F | class 1
I9N | class 1
L16N | class 0
P11L | class 0
T3Q | class 1
S13G | class 0
F19M | class 0
